observation type: log Pe (cm/s)
Give bare numbers, in cm/s.

{"molecule": "CCc1ccc(O)cc1", "log Pe, cm/s": -4.05}
{"molecule": "Oc1ccc(Cl)cc1 [PARACHLOROPHENOL]", "log Pe, cm/s": -4.1}
{"molecule": "CCC1(c2ccccc2)C(=O)NC(=O)NC1=O [PHENOBARBITAL]", "log Pe, cm/s": -5.15}
{"molecule": "O=C(O)Cc1ccccc1Nc1c(Cl)cccc1Cl [DICLOFENAC]", "log Pe, cm/s": -4.33}
{"molecule": "COC(=O)c1cccnc1 [METHYL NICOTINATE]", "log Pe, cm/s": -4.32}
{"molecule": "CN1C(C(=O)Nc2ccccn2)=C(O)c2ccccc2S1(=O)=O [PIROXICAM]", "log Pe, cm/s": -4.35}
{"molecule": "O=[N+]([O-])c1ccc(O)cc1 [P-NITROPHENOL]", "log Pe, cm/s": -4.33}
{"molecule": "Oc1cccc(O)c1 [RESORCINOL]", "log Pe, cm/s": -5.62}

Batch of 7 molecules: report log Pe for each.
1. Nc1cc([N+](=O)[O-])ccc1O [2-AMINO-4-NITROPHENOL]
2. Cc1ccc(C(C)C)c(O)c1 [THYMOL]
3. CCNc1nc(Cl)nc(NC(C)C)n1 [ATRAZINE]
4. Cc1cc(=O)n(-c2ccccc2)n1C [ANTIPYRINE]
5. COc1ccc2c(c1)c(CC(=O)O)c(C)n2C(=O)c1ccc(Cl)cc1 [INDOMETHACIN]
6. c1ccc2cnccc2c1 [ISOQUINOLINE]
7. O=C(OCc1ccccc1)c1cccnc1 [BENZYL NICOTINATE]

Ans:
[-4.84, -4.34, -4.21, -6.2, -4.2, -4.05, -4.26]

Q: GET /values?readout=log Pe&item= CN[C@@H](C)[C@H](O)c1ccccc1 [EPHEDRINE]
Ans: -4.82

Reference for the values: ChEMBL document CHEMBL1138041
